As an illustration, consider measured pIC50 for compounds on Cholesteryl ester transfer protein (Homo sapiens).
Sequence (P11597 whole entry): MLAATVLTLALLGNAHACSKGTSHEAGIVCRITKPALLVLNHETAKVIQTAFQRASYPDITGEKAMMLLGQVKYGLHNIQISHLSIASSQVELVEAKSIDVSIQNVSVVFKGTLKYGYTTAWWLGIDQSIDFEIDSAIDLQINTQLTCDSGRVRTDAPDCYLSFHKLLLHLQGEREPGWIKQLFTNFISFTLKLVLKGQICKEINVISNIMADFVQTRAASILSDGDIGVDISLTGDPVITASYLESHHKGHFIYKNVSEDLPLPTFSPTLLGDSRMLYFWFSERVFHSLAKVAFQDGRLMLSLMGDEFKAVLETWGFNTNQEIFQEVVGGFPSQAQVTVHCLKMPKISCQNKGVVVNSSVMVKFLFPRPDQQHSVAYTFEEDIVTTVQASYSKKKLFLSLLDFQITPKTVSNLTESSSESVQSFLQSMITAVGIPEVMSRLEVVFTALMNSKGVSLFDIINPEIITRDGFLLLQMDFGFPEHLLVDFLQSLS
When answering, recall that pIC50 equals minus log10 of the concentration in mol/L, and write that number alone.

Data request: Which pIC50 value belongs to CC[C@@H]1C[C@H](N(Cc2cc(C(F)(F)F)cc(C(F)(F)F)c2)c2ncc(-c3cnn(C)c3)cn2)CN1C(=O)OC(C)C ?
Data returned: 7.64

Data request: Now consider CC[C@@H]1C[C@H](N(Cc2cc(C(F)(F)F)cc(C(F)(F)F)c2)c2ncc(-c3cnn(C)c3)cn2)CN1C(=O)OCC1(C)COC1 and answer again.
Data returned: 7.28

Data request: Now consider CC[C@@H]1C[C@H](N(Cc2cc(C(F)(F)F)cc(C(F)(F)F)c2)c2ncc(N3CCOCC3)cn2)CN1c1nc(N2CCC(C(=O)O)CC2)ncc1Cl and answer again.
Data returned: 6.89

Data request: Now consider CC[C@@H]1C[C@H](N(Cc2cc(C(F)(F)F)cc(C(F)(F)F)c2)c2ncc(-c3cnn(C)c3)cn2)CN1c1nc(N2CCC(C(=O)O)CC2)ncc1Cl and answer again.
Data returned: 7.11
